Test system: Staphylococcus haemolyticus 105
EXPERIMENT: MIC, standard broth micro-dilution assay, SH 105
Type: cell-based
ASSAY READOUT: minimal inhibitory concentration (MIC), SH 105

{"COMPOUND": "CC1OC(OC2C(Oc3c4cc5cc3Oc3ccc(cc3Cl)[C@@H](O)[C@@H](NC(=O)[C@@H](Cc3ccc(Cl)cc3)NC(=O)OC(C)(C)C)C(=O)N[C@@H](CC(N)=O)C(=O)N[C@H]5C(=O)N[C@H]3C(=O)NC(C(=O)N[C@H](C(=O)O)c5cc(O)cc(O)c5-c5cc3ccc5O)[C@H](OC3CC(C)(N)C(O)C(C)O3)c3ccc(c(Cl)c3)O4)OC(CO)C(O)C2O)CC(C)(N)C1O (some centres unmarked) [Example 20]", "ASSAY SYSTEM": "Staphylococcus haemolyticus 105", "VALUE MEASURED": 8}

###

The following molecules are shown together with reported minimal inhibitory concentration (MIC), SH 105 values.
Test system: Staphylococcus haemolyticus 105
EXPERIMENT: MIC, standard broth micro-dilution assay, SH 105
Assay type: cell-based
ASSAY READOUT: minimal inhibitory concentration (MIC), SH 105

{"MOLECULE": "CC1OC(OC2C(Oc3c4cc5cc3Oc3ccc(cc3Cl)[C@@H](O)[C@@H](NC(=O)CCCCCCCc3ccccc3)C(=O)N[C@@H](CC(N)=O)C(=O)N[C@H]5C(=O)N[C@H]3C(=O)NC(C(=O)N[C@H](C(=O)O)c5cc(O)cc(O)c5-c5cc3ccc5O)[C@H](OC3CC(C)(N)C(O)C(C)O3)c3ccc(c(Cl)c3)O4)OC(CO)C(O)C2O)CC(C)(N)C1O (stereo partly drawn)", "VALUE MEASURED": 1}
{"MOLECULE": "CC(C)CC(N)C(=O)NC1C(=O)NC(CC(N)=O)C(=O)NC2C(=O)NC3C(=O)NC(C(=O)NC(C(=O)O)c4cc(O)cc(O)c4-c4cc3ccc4O)C(OC3CC(C)(N)C(O)C(C)O3)c3ccc(c(Cl)c3)Oc3cc2cc(c3OC2OC(CO)C(O)C(O)C2O)Oc2ccc(cc2Cl)C1O (stereo not drawn)", "VALUE MEASURED": 0.25}
{"MOLECULE": "CC(C)C(C(=O)NC1C(=O)NC(CC(N)=O)C(=O)NC2C(=O)NC3C(=O)NC(C(=O)NC(C(=O)O)c4cc(O)cc(O)c4-c4cc3ccc4O)C(OC3CC(C)(N)C(O)C(C)O3)c3ccc(c(Cl)c3)Oc3cc2cc(c3OC2OC(CO)C(O)C(O)C2OC2CC(C)(N)C(O)C(C)O2)Oc2ccc(cc2Cl)C1O)N(C)C(=O)OC(C)(C)C (stereo not drawn)", "VALUE MEASURED": 16}

###

Test system: Staphylococcus aureus 446
EXPERIMENT: MIC, standard broth micro-dilution assay, SA 446
Format: cell-based
ASSAY READOUT: minimal inhibitory concentration (MIC), SA 446

{"COMPOUND": "CC(C)CC(NC(=O)OC(C)(C)C)C(=O)NC1C(=O)NC(CC(N)=O)C(=O)NC2C(=O)NC3C(=O)NC(C(=O)NC(C(=O)O)c4cc(O)cc(O)c4-c4cc3ccc4O)C(OC3CC(C)(N)C(O)C(C)O3)c3ccc(c(Cl)c3)Oc3cc2cc(c3OC2OC(CO)C(O)C(O)C2O)Oc2ccc(cc2Cl)C1O (stereo not drawn) [Example 36]", "VALUE MEASURED": 8}
{"COMPOUND": "CC1OC(OC2c3ccc(c(Cl)c3)Oc3cc4cc(c3OC3OC(CO)C(O)C(O)C3OC3CC(C)(NCc5ccc(-c6ccccc6)cc5)C(O)C(C)O3)Oc3ccc(cc3Cl)C(O)C(NC(=O)C(Cc3c[nH]c5ccccc35)NC(=O)OC(C)(C)C)C(=O)NC(CC(N)=O)C(=O)NC4C(=O)NC3C(=O)NC2C(=O)NC(C(=O)O)c2cc(O)cc(O)c2-c2cc3ccc2O)CC(C)(N)C1O (stereo not drawn) [Example 25]", "VALUE MEASURED": 4}
{"COMPOUND": "CC1OC(OC2C(Oc3c4cc5cc3Oc3ccc(cc3Cl)[C@@H](O)[C@@H](NC(=O)[C@@H](Cc3ccc(Cl)cc3)NC(=O)OC(C)(C)C)C(=O)N[C@@H](CC(N)=O)C(=O)N[C@H]5C(=O)N[C@H]3C(=O)NC(C(=O)N[C@H](C(=O)O)c5cc(O)cc(O)c5-c5cc3ccc5O)[C@H](OC3CC(C)(N)C(O)C(C)O3)c3ccc(c(Cl)c3)O4)OC(CO)C(O)C2O)CC(C)(N)C1O (stereo partly drawn) [Example 20]", "VALUE MEASURED": 0.5}

###

System: Staphylococcus haemolyticus 105
EXPERIMENT: MIC, standard broth micro-dilution assay, SH 105
Format: cell-based
The following compounds are shown together with reported minimal inhibitory concentration (MIC), SH 105 values.
ASSAY READOUT: minimal inhibitory concentration (MIC), SH 105

{"COMPOUND": "CC(C)CC(NC(=O)OC(C)(C)C)C(=O)NC1C(=O)NC(CC(N)=O)C(=O)NC2C(=O)NC3C(=O)NC(C(=O)NC(C(=O)O)c4cc(O)cc(O)c4-c4cc3ccc4O)C(OC3CC(C)(N)C(O)C(C)O3)c3ccc(c(Cl)c3)Oc3cc2cc(c3OC2OC(CO)C(O)C(O)C2O)Oc2ccc(cc2Cl)C1O (stereo not drawn)", "ASSAY SYSTEM": "Staphylococcus haemolyticus 105", "VALUE MEASURED": 2}
{"COMPOUND": "CC1OC(OC2c3ccc(c(Cl)c3)Oc3cc4cc(c3OC3OC(CO)C(O)C(O)C3OC3CC(C)(NCc5ccc(-c6ccccc6)cc5)C(O)C(C)O3)Oc3ccc(cc3Cl)C(O)C(NC(=O)C(N)CCCCN)C(=O)NC(CC(N)=O)C(=O)NC4C(=O)NC3C(=O)NC2C(=O)NC(C(=O)O)c2cc(O)cc(O)c2-c2cc3ccc2O)CC(C)(N)C1O (stereo not drawn) [Example 31]", "ASSAY SYSTEM": "Staphylococcus haemolyticus 105", "VALUE MEASURED": 0.5}
{"COMPOUND": "CCCCCCNC(CC(C)C)C(=O)NC1C(=O)NC(CC(N)=O)C(=O)NC2C(=O)NC3C(=O)NC(C(=O)NC(C(=O)O)c4cc(O)cc(O)c4-c4cc3ccc4O)C(OC3CC(C)(N)C(O)C(C)O3)c3ccc(c(Cl)c3)Oc3cc2cc(c3OC2OC(CO)C(O)C(O)C2OC2CC(C)(NCCCCCC)C(O)C(C)O2)Oc2ccc(cc2Cl)C1O (stereo not drawn)", "ASSAY SYSTEM": "Staphylococcus haemolyticus 105", "VALUE MEASURED": 1}
{"COMPOUND": "CC1OC(OC2c3ccc(c(Cl)c3)Oc3cc4cc(c3OC3OC(CO)C(O)C(O)C3OC3CC(C)(NCc5ccc(-c6ccc(Cl)cc6)cc5)C(O)C(C)O3)Oc3ccc(cc3Cl)C(O)C(NC(=O)CCCCCCCc3ccccc3)C(=O)NC(CC(N)=O)C(=O)NC4C(=O)NC3C(=O)NC2C(=O)NC(C(=O)O)c2cc(O)cc(O)c2-c2cc3ccc2O)CC(C)(N)C1O (stereo not drawn)", "ASSAY SYSTEM": "Staphylococcus haemolyticus 105", "VALUE MEASURED": 2}
{"COMPOUND": "CC1OC(OC2c3ccc(c(Cl)c3)Oc3cc4cc(c3OC3OC(CO)C(O)C(O)C3OC3CC(C)(NCc5ccc(-c6ccccc6)cc5)C(O)C(C)O3)Oc3ccc(cc3Cl)C(O)C(NC(=O)C(N)Cc3ccc(Cl)cc3)C(=O)NC(CC(N)=O)C(=O)NC4C(=O)NC3C(=O)NC2C(=O)NC(C(=O)O)c2cc(O)cc(O)c2-c2cc3ccc2O)CC(C)(N)C1O (stereo not drawn) [Example 33]", "ASSAY SYSTEM": "Staphylococcus haemolyticus 105", "VALUE MEASURED": 0.5}
{"COMPOUND": "CC1OC(OC2c3ccc(c(Cl)c3)Oc3cc4cc(c3OC3OC(CO)C(O)C(O)C3OC3CC(C)(NCc5ccc(-c6ccccc6)cc5)C(O)C(C)O3)Oc3ccc(cc3Cl)C(O)C(NC(=O)C3CCCN3)C(=O)NC(CC(N)=O)C(=O)NC4C(=O)NC3C(=O)NC2C(=O)NC(C(=O)O)c2cc(O)cc(O)c2-c2cc3ccc2O)CC(C)(N)C1O (stereo not drawn) [Example 12]", "ASSAY SYSTEM": "Staphylococcus haemolyticus 105", "VALUE MEASURED": 0.125}

###

Test system: Staphylococcus haemolyticus 105
EXPERIMENT: MIC, standard broth micro-dilution assay, SH 105
Assay type: cell-based
The following molecules are shown together with reported minimal inhibitory concentration (MIC), SH 105 values.
ASSAY READOUT: minimal inhibitory concentration (MIC), SH 105

{"MOLECULE": "CC1OC(OC2c3ccc(c(Cl)c3)Oc3cc4cc(c3OC3OC(CO)C(O)C(O)C3OC3CC(C)(NCc5ccc(-c6ccccc6)cc5)C(O)C(C)O3)Oc3ccc(cc3Cl)C(O)C(NC(=O)c3ccc(-c5ccccc5)cc3)C(=O)NC(CC(N)=O)C(=O)NC4C(=O)NC3C(=O)NC2C(=O)NC(C(=O)O)c2cc(O)cc(O)c2-c2cc3ccc2O)CC(C)(N)C1O (centres unmarked)", "VALUE MEASURED": 0.5}
{"MOLECULE": "CC1OC(OC2c3ccc(c(Cl)c3)Oc3cc4cc(c3OC3OC(CO)C(O)C(O)C3OC3CC(C)(NCc5ccc(-c6ccccc6)cc5)C(O)C(C)O3)Oc3ccc(cc3Cl)C(O)C(NC(=O)C3CCCN3C(=O)OC(C)(C)C)C(=O)NC(CC(N)=O)C(=O)NC4C(=O)NC3C(=O)NC2C(=O)NC(C(=O)O)c2cc(O)cc(O)c2-c2cc3ccc2O)CC(C)(N)C1O (centres unmarked) [Example 29]", "VALUE MEASURED": 0.125}
